TEST_NAME: Log D by shaking flask method (n-octanol/phosphate buffer)
Type: physicochemical
EXPERIMENTAL_CONTEXT: 37 °C, octanol/PBS pH 1.5, 12 h, read-out: Log P/D Value O/P (pH 1.5)
RECORDED_ENDPOINT: logD at 12 h

logD at 12 h lookup needed for CC(C)=C/C=C/[C@H](C)[C@H]1CC[C@]2(C)C[C@@H]3C(C)=CC(=O)[C@H]3/C(C=O)=C\C[C@@H]12 [MHO7, 6-epi-ophiobolin G] , thanks.
1.13

---

TEST_NAME: Tissue distribution after single oral dose
Assay type: in vivo, mice
EXPERIMENTAL_CONTEXT: KM, mouse, lung; 1 h; oral 500 mg·kg^−1, female mice; read-out: Concentration in Lung
Procedure: The animals and treatment methods were the same as in the pharmacokinetic studies. Afterwards, the biological samples (n = 6 per group) were collected at 1, 4, 8, 12, 20, and 30 h, and the tissues including heart, liver, spleen, lung, kidney, stomach, intestine, brain, muscle (hind limb), fat (white adipose tissue ), reproductive organs (uterus, fallopian tube and ovary) stomach and its contents, and intestine and its contents, and the blood samples were simultaneously collected. […]
RECORDED_ENDPOINT: concentration at 1 h

concentration at 1 h lookup needed for CC(C)=C/C=C/[C@H](C)[C@H]1CC[C@]2(C)C[C@@H]3C(C)=CC(=O)[C@H]3/C(C=O)=C\C[C@@H]12 [MHO7, 6-epi-ophiobolin G] , thanks.
430 ng/g

Reference source: paper PMC6950057
